Molecular target: CCKB receptor (Mus musculus, UniProt P56481)
Construct: The whole brains from male mice (CD1 22-25 g; Charles River) were removed; from tissue; host or cells: cerebral cortex membranes of male CD1 mice
Sequence (P56481 whole entry): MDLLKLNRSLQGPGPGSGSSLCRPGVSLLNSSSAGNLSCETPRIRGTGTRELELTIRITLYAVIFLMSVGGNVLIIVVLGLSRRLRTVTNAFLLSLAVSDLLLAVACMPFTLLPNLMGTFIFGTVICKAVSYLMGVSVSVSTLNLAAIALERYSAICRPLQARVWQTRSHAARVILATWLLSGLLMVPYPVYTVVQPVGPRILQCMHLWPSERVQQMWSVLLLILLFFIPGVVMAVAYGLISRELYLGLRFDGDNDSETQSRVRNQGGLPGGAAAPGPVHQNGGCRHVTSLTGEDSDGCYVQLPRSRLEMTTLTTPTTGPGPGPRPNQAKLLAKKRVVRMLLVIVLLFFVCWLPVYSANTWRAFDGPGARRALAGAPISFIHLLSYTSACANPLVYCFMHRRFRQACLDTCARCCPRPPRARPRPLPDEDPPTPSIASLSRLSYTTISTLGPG
Experiment: CCKB receptor radioligand binding assay in mouse cortical membranes
Details: [125I]-CCK8(S) 200 pM, 150 min at 21±3°, read-out: CCKB pKi (converted)
Parameter Ki: see the listing below.
# unit: nM | format: bare number

For orientation, consider the following solved cases.
>  <COMPOUND>
Cc1ccccc1-c1cc(C(=O)Nc2cccc(C(=O)O)c2)c(CCC23CC4CC(CC(C4)C2)C3)[nH]1 [Example 123]

>  <ASSAY_TARGET>
CCKB receptor (Mus musculus, UniProt P56481)

>  <OBSERVED_RESULT>
204

$$$$
>  <COMPOUND>
O=C(O)c1cccc(NC(=O)c2cc(-c3ccccc3)[nH]c2CCC23CC4CC(CC(C4)C2)C3)c1 [Example 19]

>  <ASSAY_TARGET>
CCKB receptor (Mus musculus, UniProt P56481)

>  <OBSERVED_RESULT>
447

$$$$

Enquiry: Param readout = Ki; param system = CCKB receptor (Mus musculus, UniProt P56481); param query = Cc1ccc(NC(=O)c2nc(-c3c(Cl)cccc3Cl)[nH]c2CCC23CC4CC(CC(C4)C2)C3)cc1C(=O)O [Example 149] ; response: value
Return: 5.37

Enquiry: Param readout = Ki; param system = CCKB receptor (Mus musculus, UniProt P56481); param query = Cc1ccc(NC(=O)c2[nH]c(C3(C)CCCCC3)nc2CCC23CC4CC(CC(C4)C2)C3)cc1C(=O)O [Example 200] ; response: value
Return: 3.8

* * *

Parameter Kb: see the listing below.
Target: gastrin receptor (Rattus norvegicus)
Construct: The stomach was excised and flushed with ca. 1 ml of unbuffered physiological saline solution; from tissue; host or cells: isolated whole stomach of immature rats (ca. 21 days old)
Sequence (P30553 1-452): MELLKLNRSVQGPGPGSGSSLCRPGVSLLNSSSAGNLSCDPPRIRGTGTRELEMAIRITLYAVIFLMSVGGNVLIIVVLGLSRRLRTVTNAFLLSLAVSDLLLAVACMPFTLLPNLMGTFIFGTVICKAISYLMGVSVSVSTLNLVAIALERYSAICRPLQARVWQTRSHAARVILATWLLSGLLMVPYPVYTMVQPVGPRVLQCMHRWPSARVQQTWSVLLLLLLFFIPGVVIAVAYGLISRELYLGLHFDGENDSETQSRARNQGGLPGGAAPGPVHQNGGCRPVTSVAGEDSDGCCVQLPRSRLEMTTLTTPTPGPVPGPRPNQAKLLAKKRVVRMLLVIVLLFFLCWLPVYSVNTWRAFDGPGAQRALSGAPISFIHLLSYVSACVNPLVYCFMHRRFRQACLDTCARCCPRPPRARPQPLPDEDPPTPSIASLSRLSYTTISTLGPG
Assay: gastrin antagonist activity in immature rat stomach assay (pentagastrin dose-response, acid secretion)
Details: isolated immature rat stomach, cumulative pentagastrin dose-response curves, read-out: Gastrin pKb (converted)
# unit: nM | format: bare number

>  <MOLECULE>
O=C(O)c1cccc(NC(=O)c2nc(-c3cccc(O)c3)[nH]c2CCC23CC4CC(CC(C4)C2)C3)c1

>  <Kb (nM)>
1200

$$$$
>  <MOLECULE>
CCc1ccccc1-c1nc(C(=O)Nc2ccc(C)c(C(=O)O)c2)c(CCC23CC4CC(CC(C4)C2)C3)[nH]1

>  <Kb (nM)>
316

$$$$
>  <MOLECULE>
Cc1ccc(NC(=O)c2nc(-c3ccccc3C)[nH]c2CCC2CCCCC2)cc1C(=O)O

>  <Kb (nM)>
75.9

$$$$
>  <MOLECULE>
Cc1ccccc1-c1nc(C(=O)Nc2cccc(C(=O)O)c2)c(CCc2ccccc2)[nH]1

>  <Kb (nM)>
1170

$$$$
>  <MOLECULE>
Cc1ccc(NC(=O)c2nc(C3CCCCC3)[nH]c2COCC23CC4CC(CC(C4)C2)C3)cc1C(=O)O

>  <Kb (nM)>
115

$$$$

Enquiry: Param readout = Kb; param system = gastrin receptor (Rattus norvegicus); param query = O=C(O)c1cccc(NC(=O)c2nc(C3C4CC5CC(C4)CC3C5)[nH]c2CCC23CC4CC(CC(C4)C2)C3)c1 (stereo not shown) ; response: value
Return: 69.2

Enquiry: Param readout = Kb; param system = gastrin receptor (Rattus norvegicus); param query = `Cc1cccc(C)c1-c1nc(C(=O)Nc2cccc(C(=O)O)c2)c(CCC23CC4CC(CC(C4)C2)C3)[nH]1` ; response: value
Return: 100

Enquiry: Param readout = Kb; param system = gastrin receptor (Rattus norvegicus); param query = `C[C@H](NC(=O)c1cccc(NC(=O)c2nc(C3CCCCC3)[nH]c2CCC23CC4CC(CC(C4)C2)C3)c1)C(=O)O` ; response: value
Return: 186

Enquiry: Param readout = Kb; param system = gastrin receptor (Rattus norvegicus); param query = `COc1cc(OC)c(-c2nc(C(=O)Nc3cccc(C(=O)O)c3)c(CCC34CC5CC(CC(C5)C3)C4)[nH]2)c(OC)c1` ; response: value
Return: 912

Enquiry: Param readout = Kb; param system = gastrin receptor (Rattus norvegicus); param query = `O=C(O)c1cccc(NC(=O)c2c(COC34CC5CC(CC(C5)C3)C4)nc(C3CCCCC3)n2O)c1` ; response: value
Return: 18.6

Where do these numbers come from? They come from patent US6479531B1.
